# System: DU-145 prostate
# Test Method Notes: NCI tumour cell line growth inhibition, 48 h; in the data active means GI50 below about 0.43 µM; inactive means the rest
Outcomes: YES (active), NO (inactive)

Input Smiles: COc1ccc(/C=C/C(=O)c2ccc(Nc3nc(Nc4ccc(F)cc4)nc(Nc4ccc(F)cc4)n3)cc2)cc1
Label: NO
--
Input Smiles: CNc1nc(-c2ccc3c(N)n[nH]c3c2)cc(N2C[C@@H](C(=O)NC3CCCCC3)CC[C@H]2C)n1
Label: NO
--
Input Smiles: O=S(=O)(Nc1ccc(Cl)c(Cl)c1)c1ccc(-c2cnc(C3CC3)o2)cc1
Label: NO
--
Input Smiles: C=C(CN1CCN(c2ccc(F)c(Cl)c2)CC1)c1ccc(C(=O)Nc2ccccc2N)cc1
Label: NO
--
Input Smiles: N=C1C=C(N)C(=O)c2ccccc21
Label: YES

---

# Tested on: SF-539 CNS
# Test Method Notes: NCI tumour cell line growth inhibition, 48 h
Where a SMILES comes first, the peptide text is derived from it. [ ]: non-standard residue; d: D form.
The reader will find reported TGI values listed item by item below.
Reported Property: TGI

Compound: COc1ccc(/N=N/C(=NNC(=O)c2ccc(C)cc2)c2ccc(N(C)C)cc2)cc1
Reported Property: TGI
Observed Result: > 100 µM
//
Compound: O=C(N/C(=C\c1ccc(F)cc1)c1nc2ccccc2[nH]1)c1ccccc1
Reported Property: TGI
Observed Result: > 100 µM
//
Compound: CSCC[C@H](NC(=O)[C@@H](N)CC(N)=O)C(=O)N[C@@H](Cc1c[nH]c2ccccc12)C(=O)N[C@@H](CCC(N)=O)C(=O)N[C@@H](CCC(=O)O)C(=O)N[C@H](C(=O)NCC(=O)N[C@@H](CCCCN)C(=O)N[C@H](C)C(=O)O)C(C)C (H-NMWQEVGK[dA]-OH)
Reported Property: TGI
Observed Result: > 100 µM

---

# Tested on: NCI-H23 lung
# Test Method Notes: NCI tumour cell line growth inhibition, 48 h
Where a SMILES comes first, the peptide text is derived from it. [ ]: non-standard residue; d: D form. The star is where a group is joined. Cbz = O=C(OCc1ccccc1)*; Aib = CC(C)(N)C(=O)O
The reader will find reported TGI values listed item by item below.

Compound: C=CCO[C@H]1CC[C@@]2(C)C(CC[C@]3(C)C2CC=C2[C@@H]4[C@@H](C)C(C)CC[C@]4(C(=O)O)CCC23C)C1(C)C (stereo partly drawn)
TGI: 28.9 µM

Compound: Cc1ccc2c(c1)Nc1ccccc1P2(=O)O
TGI: > 100 µM

Compound: CCN1CCC(O)(/C=C/c2ccccc2)C(C(=O)/C=C/c2ccccc2)C1 (stereo not drawn)
TGI: 10.3 µM

Compound: CCCCCCCCCCOc1ccc(N=Nc2nnc(-c3ccc(OCCCCC)cc3)s2)cc1
TGI: > 100 µM

Compound: Nc1c(C(=O)O)nnc2cc(Cl)ccc12
TGI: > 100 µM

Compound: CC(C)(NC(=O)C(C)(C)NC(=O)OCc1ccccc1)C(=O)O (Cbz-[Aib]-[Aib]-OH)
TGI: > 100 µM

Compound: Cc1nc2sc(C(=O)Nc3ccccc3)c(N)c2cc1C(=O)c1ccccc1
TGI: > 50 µM

Compound: COC(=O)C(=O)C(C#N)c1c(Cl)cccc1Cl (stereo not drawn)
TGI: > 100 µM

---

# System: SK-MEL-5 melanoma
# Test Method Notes: NCI tumour cell line growth inhibition, 48 h

Input Smiles: O=[N+]([O-])c1ccc(Nc2cccc3c2[nH]c2c(-c4ccccc4)nccc23)c([N+](=O)[O-])c1
TGI: > 100 µM

Input Smiles: COC(=O)c1cc(C)[nH]c2c(C)cc3nc4ccccc4c3c12
TGI: 19.2 µM

Input Smiles: CCOP(=O)(Cc1nc(C#N)c(N)o1)OCC
TGI: > 100 µM

---

# Test system: SK-MEL-5 melanoma
# Test Method Notes: NCI tumour cell line growth inhibition, 48 h
Reported Property: TGI

Molecule: CCOC(=O)C1CCCN1C(=O)c1ccccc1Cl (stereo not drawn)
Reported Property: TGI
Observed Result: > 100 µM

Molecule: CCOc1ccccc1NC(=O)C1=C(C)NC(C)=C(C(=O)Nc2ccccc2OCC)C1c1cccc([N+](=O)[O-])c1
Reported Property: TGI
Observed Result: > 100 µM

Molecule: NC1=Nc2ccccc2Sc2ccccc21
Reported Property: TGI
Observed Result: > 100 µM

---

# Tested on: SK-OV-3 ovarian
# Test Method Notes: NCI tumour cell line growth inhibition, 48 h
The reader will find reported TGI values listed item by item below.

Compound: COC(=O)C(=O)C(C#N)c1c(Cl)cccc1Cl (stereo not drawn)
TGI: > 100 µM
//
Compound: O=C(O)C1CSC2(CCCN(Cc3ccccc3)C2)N1 (stereo not drawn)
TGI: > 100 µM
//
Compound: COc1cc2nc(-c3cccs3)nc(N3C(c4cc(OC)c(OC)c(OC)c4)=NNC(=O)c4ccccc43)c2cc1OC
TGI: > 100 µM

---

The reader will find reported TGI values listed item by item below.
# Tested on: SK-MEL-2 melanoma
# Test Method Notes: NCI tumour cell line growth inhibition, 48 h

Compound: CC(C)(CO)CNc1cc(Cl)nc(N)n1
Measured On: SK-MEL-2 melanoma
TGI: > 100 µM
//
Compound: O=C(N/C(=C\c1ccc(F)cc1)c1nc2ccccc2[nH]1)c1ccccc1
Measured On: SK-MEL-2 melanoma
TGI: > 100 µM
//
Compound: CCOC(=O)CC(C)C1(C=O)CCCCC1=O (centres undefined)
Measured On: SK-MEL-2 melanoma
TGI: > 100 µM
//
Compound: C[C@H]1CC[C@@H]2[C@@H](C)[C@H]3[C@H](C[C@H]4[C@@H]5CC=C6C[C@@H](O)CC[C@]6(C)[C@H]5CC[C@]34C)N2C1
Measured On: SK-MEL-2 melanoma
TGI: > 100 µM

---

# System: SNB-75 CNS
# Test Method Notes: NCI tumour cell line growth inhibition, 48 h
The reader will find reported TGI values listed item by item below.

Compound: Cc1ccc(S(=O)(=O)NC(=O)NC(CC(=O)O)C(=O)O)cc1 (configuration not stated)
TGI: > 100 µM

Compound: CS(=O)(=O)CCNCc1ccoc1-c1ccc2ncnc(Nc3ccc(OCc4ccccc4)cc3)c2c1
TGI: > 25 µM

Compound: Cc1cc(OCC(O)CO)ccc1Cl (configuration not stated)
TGI: > 100 µM

Compound: Cn1c(-c2c(C3=CC(=O)N(c4ccccc4)C3=O)c3ccccc3n2C)cc2ccccc21
TGI: > 100 µM

Compound: C=C1C(=O)OC2(C)CCC1CC1OC1(C)CCC=C(C)CCC2O (configuration not stated)
TGI: > 100 µM

Compound: C/C(=N\Nc1n[nH]c(=S)n1N)c1c(O)cc(C)oc1=O
TGI: > 100 µM

Compound: Nc1ccn(CC(O)c2cc3ccccc3[nH]2)c(=O)n1 (configuration not stated)
TGI: > 100 µM

Compound: Cc1c(Cl)cccc1NC(=O)C(=O)c1c(O)c2ccc(O)cc2oc1=O
TGI: > 100 µM

Compound: Nc1ccc(C(=O)O)cc1
TGI: > 100 µM

Compound: CCOC(=O)CN1C(=O)C(=O)N(c2ccc(OC)c3ccccc23)C1=O
TGI: > 100 µM

Compound: Cn1cccc1-c1cc(-c2ccccc2)nc(N)c1C#N
TGI: > 87.9 µM

Compound: CCOC(=O)CCC(NC(=O)c1ccc(Nc2nc3ccccc3nc2C(=O)OCC)s1)C(=O)OCC (configuration not stated)
TGI: > 100 µM

---

The reader will find reported TGI values listed item by item below.
# Tested on: TK-10 renal
# Test Method Notes: NCI tumour cell line growth inhibition, 48 h

Compound: CCOc1ccccc1NC(=O)C1=C(C)NC(C)=C(C(=O)Nc2ccccc2OCC)C1c1cccc([N+](=O)[O-])c1
TGI: > 100 µM
//
Compound: c1ccc(-c2cc3n4c(-c5ccccc5)nn(-c5ccccc5)c4cnc-3n2)cc1
TGI: > 50 µM
//
Compound: N#C/C(=C1\OC(N)=C(c2ccc(Cl)cc2)C1=O)c1ccc(Cl)cc1
TGI: 41.4 µM
//
Compound: N/C(CC(=O)NOC(=O)c1ccccc1)=N/OC(=O)c1ccccc1
TGI: > 100 µM
//
Compound: C=Cc1cc(OC)c2c(c1)c(=O)oc1c2cc(OC)c2c(O)ccc(C3OC(C(C)O)C(O)C3O)c21 (configuration not stated)
TGI: 0.318 µM
//
Compound: O=C1c2cc3ncsc3cc2C(=O)c2c(O)ccc(O)c21
TGI: > 100 µM
//
Compound: COC(=O)C(=O)C(C#N)c1c(Cl)cccc1Cl (configuration not stated)
TGI: > 100 µM
//
Compound: CSc1nc(-c2ccccc2)nc(=[N+]2CCOCC2)s1
TGI: > 100 µM
//
Compound: N=C1C=C(N)C(=O)c2ccccc21
TGI: 1.7 µM
//
Compound: COC1CC(n2cc(F)c(N)nc2=O)OC1CO (configuration not stated)
TGI: > 100 µM
//
Compound: C[C@H]1CCC2C(OC(=O)[C@@H]2CN(C)C)[C@]2(C)C(=O)C=CC12O (some centres not stated)
TGI: 18.4 µM
//
Compound: CC(C)OP(=O)(OC(C)C)/C(C#N)=C/c1c[nH]c2ccccc12
TGI: > 100 µM
//
Compound: Cn1c(-c2c(C3=CC(=O)N(c4ccccc4)C3=O)c3ccccc3n2C)cc2ccccc21
TGI: > 100 µM
//
Compound: CC(=O)OC1=C(CC(C)(C)C)C(=O)c2ccccc2C1=O
TGI: > 100 µM
//
Compound: C=C1C(=O)OC2(C)CCC1CC1OC1(C)CCC=C(C)CCC2O (configuration not stated)
TGI: > 100 µM
//
Compound: Cc1ccsc1/C=N/Nc1cc(C)c2ccccc2n1
TGI: 31.9 µM
//
Compound: N#CC(C#N)C(c1ccccc1)c1ccccc1
TGI: > 100 µM
